The reported measurements were obtained from patent US8383637B2.

Measured IC50, listed per entry for reference.
- Measured Target: β-secretase(BACE) (Homo sapiens)
- Construct: purchased Panvera
- Test Method Notes: BACE Assay-2 (FS1 substrate, IC50 and Ki)
- Format: biochemical
- Recorded Conditions: procedure of Example 159, FS1 substrate
Your answer is read as µM, so omit the unit and give the number.

[[record]]
smiles_code = "CCCN1Cc2cc(Oc3cccc(NC(=O)OCc4ccccc4)c3)ccc2N=C1N"
measured_target = "β-secretase(BACE) (Homo sapiens)"
unit_spec = "µM"
measured_result = 3.9

[[record]]
smiles_code = "CCCN1Cc2cc(Oc3cccc(NC4CCCCC4)c3)ccc2N=C1N"
measured_target = "β-secretase(BACE) (Homo sapiens)"
unit_spec = "µM"
measured_result = 6.8

[[record]]
smiles_code = "CN(C(=O)CCN1Cc2cc(Oc3ccccc3)ccc2N=C1N)C1CCCCC1"
measured_target = "β-secretase(BACE) (Homo sapiens)"
unit_spec = "µM"
measured_result = 2.1


Exam item: Provide the reported IC50 (system: β-secretase(BACE) (Homo sapiens)) for NC1=Nc2ccc(Oc3ccccc3)cc2CN1CCCCC(=O)N(C1CCCCC1)C1CCCCC1
Marked response: 1.6

###

Measured IC50, listed per entry for reference.
- Measured Target: β-secretase(BACE) (Homo sapiens, UniProt P56817)
- Construct: purchased Panvera
- Sequence (P56817 46-501): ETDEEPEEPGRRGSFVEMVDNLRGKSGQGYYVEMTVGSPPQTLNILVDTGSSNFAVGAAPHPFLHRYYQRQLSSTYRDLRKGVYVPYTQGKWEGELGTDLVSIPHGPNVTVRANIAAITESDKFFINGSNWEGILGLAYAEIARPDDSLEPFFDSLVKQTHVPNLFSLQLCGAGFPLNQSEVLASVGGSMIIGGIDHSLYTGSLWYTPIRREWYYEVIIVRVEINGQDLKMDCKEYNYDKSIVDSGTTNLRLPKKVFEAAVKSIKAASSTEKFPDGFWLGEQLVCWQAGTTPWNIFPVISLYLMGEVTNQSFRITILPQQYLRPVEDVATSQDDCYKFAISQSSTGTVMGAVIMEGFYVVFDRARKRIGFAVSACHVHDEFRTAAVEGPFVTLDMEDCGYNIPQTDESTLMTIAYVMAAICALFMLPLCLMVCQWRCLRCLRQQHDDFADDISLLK
- Test Method Notes: BACE Assay-1 (MCA-substrate, IC50)
- Assay type: biochemical
- Recorded Conditions: procedure of Example 158; read-out: IC50 μM (158)
Your answer is read as µM, so omit the unit and give the number.

Here is how some compounds turned out for IC50.
[[record]]
compound = "CCCN1Cc2cc(Oc3cccc(NS(=O)(=O)c4c(C)cc(C)cc4C)c3)ccc2N=C1N"
measured_result = 0.033

[[record]]
compound = "NC1=Nc2ccc(Oc3ccccc3)cc2CN1CCNC(=O)NC12CC3CC(CC(C3)C1)C2"
measured_result = 0.078

[[record]]
compound = "CN(C(=O)c1cccc(CN2Cc3cc(-c4ccccc4Cl)ccc3N=C2N)c1)C1CCCCC1"
measured_result = 0.15

[[record]]
compound = "CCCN1Cc2cc(Oc3cccc(NS(=O)(=O)c4ccc(OC)c(OC)c4)c3)ccc2N=C1N"
measured_result = 5.2

[[record]]
compound = "CCC(c1cccc(C(=O)N(C)C2CCCCC2)c1)N1Cc2cc(Oc3ccccc3)ccc2N=C1N (centres unmarked)"
measured_result = 0.062

[[record]]
compound = "CCCN1Cc2cc(Oc3cccc(NS(=O)(=O)c4cccc(C#N)c4)c3)ccc2N=C1N"
measured_result = 2.37

[[record]]
compound = "CC(C)(C)C(=O)NCCN1Cc2cc(Oc3ccccc3)ccc2N=C1N"
measured_result = 0.15

[[record]]
compound = "CCCN1Cc2cc(Oc3cccc(NC4CCCCC4)c3)ccc2N=C1N"
measured_result = 1

[[record]]
compound = "NC1=Nc2ccc(Oc3ccccc3)cc2CN1CCNC(=O)C1CCCCC1"
measured_result = 0.1

[[record]]
compound = "CCCN1Cc2cc(Oc3cccc(NS(=O)(=O)CCc4cccc5ccccc45)c3)ccc2N=C1N"
measured_result = 1.6


Exam item: // Input: COc1ccccc1-c1ccc2c(c1)CN(C(CCC(=O)N(C)C1CCCCC1)C1CCCCC1)C(N)=N2 (centres unmarked) . Output its IC50 only.
Marked response: 0.043

Exam item: // Input: CCCC(CCC)C(=O)NCC(C1CCCCC1)N1Cc2cc(Oc3ccccc3)ccc2N=C1N (centres unmarked) . Output its IC50 only.
Marked response: 0.05

Exam item: // Input: NC1=Nc2ccc(C(=O)c3ccccc3)cc2CN1CCNC(=O)C1CCCCC1 . Output its IC50 only.
Marked response: 1.4
